- test summary: Tanguay_ZF_120hpf_CFIN_legacy: (Legacy) Oregon State University Tanguay Lab 120 Hour Post-fertilization zebrafish Assay for Caudal Fin Malformation (AID 2283649)
Records with an inconclusive call do not appear. Activity calls are given as the source filed them. Rule for the calls: active = hit-call score of the fitted dose curve at least 0.9, where 1 is the maximum; inconclusive = response in the unintended direction; inactive = score below 0.9.

molecule	outcome
C/C=C/c1ccc(OC)cc1	inactive
CCN(CC)CCOc1ccc(C(=C(Cl)c2ccccc2)c2ccccc2)cc1	inactive
CCCCCCC(CCCCCCCCCCC(=O)OCC(COC(C)=O)OC(C)=O)OC(C)=O (configuration not stated)	inactive
Cc1c(C)c2c(c(C)c1O)CCC(C)(COc1ccc(CC3SC(=O)NC3=O)cc1)O2 (configuration not stated)	inactive
Cc1ccc(-c2cc(C(F)(F)F)nn2-c2ccc(S(N)(=O)=O)cc2)cc1	inactive
COC(=O)CCC(=O)OC	inactive
CCc1cc(C2=C(C(=O)O)N(c3ccccc3C(F)(F)F)S(=O)(=O)c3ccccc32)cc2c1OCO2	inactive
C/C=C/C=C/C(=O)O	inactive
Nc1nc(Cl)nc2c1ncn2[C@H]1C[C@H](O)[C@@H](CO)O1	inactive
O=C(O)CC(O)(CC(=O)O)C(=O)O	inactive
NC=O	inactive
CN(C)CCCN(C)CCCN(C)C	inactive
